# system: ASGPR (Homo sapiens (Human))
# Sequence (P07306 whole entry): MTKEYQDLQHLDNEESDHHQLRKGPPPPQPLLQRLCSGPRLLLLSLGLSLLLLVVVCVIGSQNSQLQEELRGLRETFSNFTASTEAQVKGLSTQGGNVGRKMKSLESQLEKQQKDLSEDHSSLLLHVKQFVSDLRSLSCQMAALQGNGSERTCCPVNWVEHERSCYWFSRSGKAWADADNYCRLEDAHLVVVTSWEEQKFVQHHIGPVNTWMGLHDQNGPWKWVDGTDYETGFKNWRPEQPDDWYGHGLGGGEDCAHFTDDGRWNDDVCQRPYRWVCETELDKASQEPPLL
# run-description: Affinity to ASGPR measured by surface plasmon resonance (SPR)
# Assay type: binding
# protocol-conditions: ASGPR ligands, Table 2; Biacore 8K, 25° C., steady state fit; read-out: SPR Binding External Calculation: KD
# Kd values compiled below
assay-readout: Kd

{"compound": "CC(=O)N[C@@H]1CO[C@H](CO)[C@H](O)[C@@H]1O", "assay-readout": "Kd", "value-measured": "< 100 µM"}
{"compound": "OC[C@H]1OC[C@@H](COc2ccccc2)[C@@H](O)[C@H]1O", "assay-readout": "Kd", "value-measured": "100 to 500 µM"}
{"compound": "CC1C(Oc2ccccc2)O[C@H](CO)[C@H](O)[C@@H]1O (stereo in doubt)", "assay-readout": "Kd", "value-measured": "> 1000 µM"}

The values you see were collected from patent US20240072809A1.
